Cited source: PubChem BioAssay AID1159580

Experiment: chemical genetic growth profiling, strain panel (AID 1159580);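 also: tested at 20 µM; growth read once vehicle control cultures reached saturation at 30 °C; 1 = growth at the plate median or of vehicle wells; lower values mean less growth of the strain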
Settings: S. cerevisiae deletion strains, growth OD, locus YPL241C, strain CIN2, stronger effect = lower value
The whole screen tested about 5,500 compounds, of which about 2,000 (36%) were called active. Roughly 18% stayed inconclusive and do not appear here. This is one part of the list.
endpoint.label: normalized growth
Write the value as a bare number.

>>> print(df.to_string())
                                   molecule     endpoint_label  measured_value
0  CC1(C)C(=O)CC[C@@]2(C)C1C[C@@H](O)[C@@]1(C)C3=CC(=O)O[C@@H](c4ccoc4)[C@]3(C)CCC21 (stereo not given in full)  normalized growth           0.996
1                                    NCCCCN  normalized growth            1.01
2  CC(=O)O[C@@H]1CC2C(C)(CC[C@H](O)C2(C)C)C2CC[C@]3(C)C(=CC(=O)O[C@H]3c3ccoc3)C21C (stereo not given in full)  normalized growth               1
3  CCC1(O)C(=O)OCc2c1cc1n(c2=O)Cc2cc3ccccc3nc2-1 (stereo not given)  normalized growth           0.984

Input CCCCCC(O)C1C(=O)OC(C)C(O)/C=C/C=C/C=C/C=C/C=C(\C)C(O)CC(O)CC(O)CC(O)CC(O)CC(O)CC1O (stereo not given) . Output normalized growth: 1.01
